Where do these numbers come from? They come from patent US6949652B2.

Test system: MAPKAP kinase-2
Test: MAPKAP Kinase-2 assay (LPS-stimulated monocytes, immunoprecipitation, kinase activity)
Type: cell-based
Conditions: human monocytes, LPS 30 minutes, MAPKAP kinase-2 immunoprecipitate; read-out: IC50 in the MAPKAP in vitro assay
pIC50: −log10 of the molar value.
PROPERTY LABEL: pIC50

I'd like to know its pIC50. The molecule in question is `CC(C)c1nnc2ccc(-c3ocnc3-c3cc(F)ccc3F)cn12`
> 5.00
